Origin of the recorded values: patent US11498899B2

System: wheat (Triticum aestivum)
Assay: Test A postemergence, visual injury rating 0-100
Format: in vivo
Conditions: 125 g ai/ha, 0 to 100 scale
property_measured: Wheat plant response rating

[[record]]
molecule = "CC1=[N+]([O-])C(C(=O)Nc2cccc(F)c2F)C(c2cc(F)ccc2C)C1 (racemic)"
system = "wheat (Triticum aestivum)"
quantitative_result = 0

[[record]]
molecule = "CC1=[N+]([O-])C(C(=O)Nc2cccc(F)c2F)C(c2ccc(Cl)c(F)c2)C1 (racemic)"
system = "wheat (Triticum aestivum)"
quantitative_result = 10

[[record]]
molecule = "O=C(Nc1cccc(F)c1F)C1C(c2ccccc2)CC(C(F)(F)F)=[N+]1[O-] (racemic)"
system = "wheat (Triticum aestivum)"
quantitative_result = 0

[[record]]
molecule = "CC1=[N+]([O-])C(C(=O)Nc2cccc(F)c2F)C(c2cc(C(F)(F)F)cc(C(F)(F)F)c2)C1 (racemic)"
system = "wheat (Triticum aestivum)"
quantitative_result = 50

[[record]]
molecule = "CC1=[N+]([O-])C(C(=O)Nc2cccc(F)c2F)C(c2cccc(Oc3ccc(F)cc3)c2)C1 (racemic)"
system = "wheat (Triticum aestivum)"
quantitative_result = 10

[[record]]
molecule = "CC1=[N+]([O-])C(C(=O)Nc2cccc(F)c2F)C(c2cccc(Br)n2)C1 (racemic)"
system = "wheat (Triticum aestivum)"
quantitative_result = 0

[[record]]
molecule = "CC1=[N+]([O-])C(C(=O)Nc2cccc(F)c2F)C(c2cc(C)cc(C)c2)C1 (racemic)"
system = "wheat (Triticum aestivum)"
quantitative_result = 40


---

System: corn (Zea mays)
Assay: Test A postemergence, visual injury rating 0-100
Type: in vivo
Details: 500 g ai/ha, 0 to 100 scale
Decision: Corn plant response rating >= 70 yields condition met, all other cases yield condition not met.

[[record]]
molecule = "CC1=[N+]([O-])C(C(=O)Nc2cccc(F)c2F)C(c2cc(C(F)(F)F)cc(C(F)(F)F)c2)C1 (racemic)"
system = "corn (Zea mays)"
label = "condition met"

[[record]]
molecule = "CC1=[N+]([O-])C(C(=O)Nc2cccc(F)c2F)C(c2cc(C)cc(CF)c2)C1 (racemic)"
system = "corn (Zea mays)"
label = "condition met"

[[record]]
molecule = "CC1=[N+]([O-])[C@H](C(=O)Nc2cccc(F)c2F)[C@@H](c2ccc3c(c2)OC(F)(F)O3)C1 (relative stereo)"
system = "corn (Zea mays)"
label = "condition met"

[[record]]
molecule = "CC1=[N+]([O-])C(C(=O)Nc2cccc(F)c2F)C(c2cccc(Cl)c2)C1 (racemic)"
system = "corn (Zea mays)"
label = "condition met"

[[record]]
molecule = "CC1=[N+]([O-])C(C(=O)Nc2cccc(F)c2F)C(c2ccc(F)c(F)c2)C1 (racemic)"
system = "corn (Zea mays)"
label = "condition not met"

[[record]]
molecule = "CC1=[N+]([O-])C(C(=O)Nc2cccc(F)c2F)C(c2cccc(Br)c2)C1 (racemic)"
system = "corn (Zea mays)"
label = "condition met"

[[record]]
molecule = "CC1=[N+]([O-])C(C(=O)Nc2cccc(F)c2F)C(c2cc(C)n(Cc3ccc(Cl)cc3)c(=O)c2)C1 (racemic)"
system = "corn (Zea mays)"
label = "condition not met"

[[record]]
molecule = "CC1=[N+]([O-])C(C(=O)Nc2cccc(F)c2F)C(c2cccc(C(F)(F)F)c2C)C1 (racemic)"
system = "corn (Zea mays)"
label = "condition met"

[[record]]
molecule = "CC1=[N+]([O-])[C@H](C(=O)Nc2ccc(F)nc2F)[C@@H](c2ccc(C(F)(F)F)cc2)C1 (relative stereo)"
system = "corn (Zea mays)"
label = "condition not met"

[[record]]
molecule = "CC1=[N+]([O-])C(C(=O)Nc2cccc(F)c2F)C(c2cccc(C)c2C)C1 (racemic)"
system = "corn (Zea mays)"
label = "condition not met"

[[record]]
molecule = "CCC1=[N+]([O-])C(C(=O)Nc2cccc(F)c2F)C(c2ccc(C(F)(F)F)cc2)C1 (racemic)"
system = "corn (Zea mays)"
label = "condition not met"

